Entries annotated with measured melting point

Here is how some molecules turned out for melting point.
1. COC(=O)c1ccc2c(Br)nn(C)c2c1 : 122 to 125 °C
2. NC1=CN(Cc2ccc(Cl)cc2Cl)CN=C1 : 104 to 105 °C
3. Cc1ncn(C(=O)Nc2ccccc2)c1Cl : 112 to 114 °C
4. CCN(CC)C1CCCCN(CC(=O)N2c3ccccc3C(=O)Nc3cccnc32)C1 (stereo not drawn) : 222 to 224 °C

The recorded melting point for CCC(COc1cccc(COc2cccc3ccc(=O)[nH]c23)c1)OC(C)=O (stereo not drawn) is 81 to 84 °C

Recorded result, NC1=NC(c2cccc(Oc3ccccc3)c2)N(c2cccc(Cc3ccccc3)c2)C(N)=N1 (stereo not drawn) , melting point: 165 to 167 °C

Looking up CCCCc1nc(C2CCCCC2)n(Cc2ccc(-c3ccccc3-c3ncn[nH]3)cc2)n1 , I found its melting point recorded as 158 to 160 °C

Entry CC(C)(C)c1cc(CCc2ccccc2NC(=O)N2CCN(C(=O)c3cccnc3)CC2)cc(C(C)(C)C)c1O ; melting point = 171 to 172 °C
